TARGET_OR_SYSTEM: CETP (Homo sapiens, UniProt P11597)
Sequence (P11597 18-493, species assumed): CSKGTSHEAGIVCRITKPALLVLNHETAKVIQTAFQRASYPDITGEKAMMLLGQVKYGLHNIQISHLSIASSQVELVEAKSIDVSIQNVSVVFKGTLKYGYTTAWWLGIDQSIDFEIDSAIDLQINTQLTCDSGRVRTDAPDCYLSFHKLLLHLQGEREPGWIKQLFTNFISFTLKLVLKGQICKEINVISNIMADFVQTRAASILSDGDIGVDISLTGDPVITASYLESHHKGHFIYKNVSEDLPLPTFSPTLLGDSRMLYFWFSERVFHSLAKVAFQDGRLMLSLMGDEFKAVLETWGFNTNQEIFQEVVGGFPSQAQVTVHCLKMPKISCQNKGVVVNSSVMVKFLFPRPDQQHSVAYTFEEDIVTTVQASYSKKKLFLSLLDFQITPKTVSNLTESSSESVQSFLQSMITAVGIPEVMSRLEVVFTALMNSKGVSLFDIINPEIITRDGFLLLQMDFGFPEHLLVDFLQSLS
TEST: Determination of CETP inhibition activity (fluorescent donor/acceptor transfer)
Assay type: biochemical
CONDITION_INFO: Concentration of compounds 500 μM; read-out: CETP inhibition activity Inhibition rate(%)
Method: A mixture containing 3 μl of a donor, 9 μl of an acceptor (250 μg protein), 3 μl of CETP solution and 85 μl of an analytic buffer, 10 mM Tris, 0.15 M NaCl and 2 mM EDTA, pH 7.4 was incubated at 37° C. for 0.5 hours, the fluorescence intensity was determined on Victor 3 double illuminometer/fluorescence counter (Perkin Elmer) carrying […] light wave length.
We use 30% as the dividing line for inhibition at 500 µM: on or above the line is rule met, below is rule not met.

### Prompt Dear colleague, could you confirm whether O=C(Nc1nc(-c2ccc(O)cc2)c(Cc2ccc(F)cc2)s1)c1ccc(O)c(O)c1 has inhibition at 500 µM at or above 30%?
### Response rule not met

### Prompt Is inhibition at 500 µM at least 30%? Consider O=C(CCc1ccc(O)c(O)c1)Nc1nc(-c2ccc(O)cc2)c(Cc2ccccc2)s1
### Response rule not met

### Prompt Quick check: does O=C(Nc1nc(-c2ccc(O)cc2)c(Cc2ccccc2)s1)c1ccc(Cl)cc1 have inhibition at 500 µM greater than or equal to 30%?
### Response rule met

### Prompt Could you verify whether the entry COc1ccc(-c2nc(N3CCOCC3)sc2Cc2ccccc2)cc1 shows inhibition at 500 µM of no less than 30%?
### Response rule met

### Prompt Check if inhibition at 500 µM >= 30% (inclusive). Item: O=C(Nc1nc(-c2ccc(O)cc2)c(CC2CCCCC2)s1)c1cc(O)c(O)c(O)c1
### Response rule not met

### Prompt Textbook exercise: given the entry CCCCc1sc(N)nc1-c1ccc(OC)cc1 , state whether its inhibition at 500 µM is greater than or equal to 30%.
### Response rule met

### Prompt Confirm if inhibition at 500 µM reported for the compound O=C(Nc1nc(-c2ccc(O)cc2)c(CCc2ccccc2)s1)c1ccc(O)c(O)c1 is 30% or above.
### Response rule not met

### Prompt For this compound, is measured inhibition at 500 µM 30% or higher? Cc1sc(NC(=O)c2cc(O)c(O)c(O)c2)nc1-c1ccc(O)cc1
### Response rule met

### Prompt Is the recorded value of inhibition at 500 µM equal to or greater than 30% for this compound? O=C(Nc1nc(-c2ccc(O)cc2)c(Cc2ccccc2)s1)c1cc(O)c(O)c(O)c1
### Response rule met

### Prompt Hi team, for COc1ccc(-c2nc(N)sc2Cc2ccc(F)cc2)cc1 , is the recorded inhibition at 500 µM at or above 30%?
### Response rule met

---

For each record, write down the corresponding melting point.

Value of melting point reported for the molecule COc1ccc(-c2nc(NC(=O)c3ccc(OC)c(OC)c3)sc2Cc2ccccc2)cc1 [Example 12] is 179 to 180 °C

melting point recorded for this molecule, COc1ccc(-c2nc(NC(=O)c3cc(OC)c(OC)c(OC)c3)sc2CC2CCCCC2)cc1 [Example 50] , is 193 to 194 °C

The reported melting point of the molecule O=C(Nc1nc(-c2ccc(O)cc2)c(CC2CCCCC2)s1)c1ccc(O)c(O)c1 [Example 49] was 133 to 134 °C

Lab book: melting point of O=C(Nc1nc(-c2ccc(O)cc2)c(Cc2ccccc2)s1)c1ccc(O)cc1 [Example 46] noted as 254 to 255 °C

The measured melting point associated with COc1ccc(-c2nc(NC(=O)c3ccc(F)cc3)sc2Cc2ccccc2)cc1 [Example 4] reads 164 to 165 °C

Per the record, COc1ccc(-c2nc(NC(=O)c3ccc(C#N)cc3)sc2Cc2ccc(F)cc2)cc1 [Example 25] has melting point of 191 to 192 °C

Short answer for O=C(Nc1nc(-c2ccc(O)cc2)c(Cc2ccccc2)s1)c1ccc(Cl)cc1 [Example 8] : melting point was 109 to 110 °C

// O=C(CCc1ccc(O)c(O)c1)Nc1nc(-c2ccc(O)cc2)c(Cc2ccccc2)s1 [Example 69] : melting point value = 94 to 95 °C

---

TARGET_OR_SYSTEM: CETP (Homo sapiens)
TEST: Determination of CETP inhibition activity (fluorescent donor/acceptor transfer)
Format: biochemical
CONDITION_INFO: Concentration of compounds 500 μM; read-out: CETP inhibition activity Inhibition rate(%)
Hi, to clarify the labels: Satisfied covers inhibition at 500 µM from 6% upward, Not satisfied covers anything below 6%.

### Prompt Exam item: decide whether the reported inhibition at 500 µM for O=C(Nc1nc(-c2ccc(O)cc2)c(Cc2ccccc2)s1)c1ccc(O)cc1O [Example 38] is at least 6%.
### Response Satisfied

### Prompt Quick check, inhibition at 500 µM >= 6%? O=C(Nc1nc(-c2ccc(F)cc2)c(Cc2ccc([N+](=O)[O-])cc2)s1)c1ccc(O)c(O)c1 [Example 31]
### Response Not satisfied

### Prompt Does the compound O=C(Nc1nc(-c2ccc(O)cc2)c(Cc2ccc([N+](=O)[O-])cc2)s1)c1ccc(O)c(O)c1 [Example 34] have recorded inhibition at 500 µM that is 6% or more?
### Response Satisfied

### Prompt # check: inhibition at 500 µM of CCCCc1sc(NC(=O)c2cc(O)c(O)c(O)c2)nc1-c1ccc(O)cc1 [Example 66] is greater than or equal to 6%
### Response Satisfied

### Prompt hey, is inhibition at 500 µM for this one >= 6%? O=C(Nc1nc(-c2ccccc2)c(Cc2ccc([N+](=O)[O-])cc2)s1)c1ccc(O)c(O)c1 [Example 32]
### Response Not satisfied

### Prompt Confirm if inhibition at 500 µM reported for the compound COc1ccc(-c2nc(N)sc2CCc2ccccc2)cc1 [Example 57] is 6% or above.
### Response Satisfied

### Prompt Tell me whether inhibition at 500 µM is at least 6% here: O=C(Nc1nc(-c2ccc(O)cc2)c(Cc2ccccc2)s1)c1ccc(O)c(O)c1 [Example 19]
### Response Satisfied

---

I'd be grateful if you could share measured melting point for these entries.

// melting point value for O=C(Nc1nc(-c2ccc(F)cc2)c(Cc2ccc([N+](=O)[O-])cc2)s1)c1ccc(F)cc1 : 120 to 122 °C

Quick note, melting point for O=C(Nc1nc(-c2ccc(O)cc2)c(Cc2ccccc2)s1)c1ccc(F)cc1 landed at 205 to 206 °C

// O=C(Nc1nc(-c2ccc(O)cc2)c(CCc2ccccc2)s1)c1ccc(O)c(O)c1 : melting point value = 208 to 209 °C

O=C(Nc1nc(-c2ccc(O)cc2)c(Cc2ccccc2)s1)c1ccc(O)c(O)c1 yielded melting point of 240 to 241 °C

Documented melting point of O=C(Nc1nc(-c2ccc(O)cc2)c(Cc2ccccc2)s1)c1cc(O)c(O)c(O)c1 : 245 to 246 °C

Lab note: COc1ccc(-c2nc(NC(=O)c3cc(OC)cc(OC)c3)sc2Cc2ccccc2)cc1 gave melting point of 152 to 153 °C

GET /value?item= CCCCc1sc(N)nc1-c1ccc(OC)cc1 &field=melting point returns 118 to 119 °C

melting point recorded for this compound, CCCCc1sc(NC(=O)c2cc(OC)c(OC)c(OC)c2)nc1-c1ccc(OC)cc1 , is 197 to 198 °C

---

TARGET_OR_SYSTEM: PLTP (Homo sapiens)
Construct: from tissue
Sequence (P55058 18-493, species assumed): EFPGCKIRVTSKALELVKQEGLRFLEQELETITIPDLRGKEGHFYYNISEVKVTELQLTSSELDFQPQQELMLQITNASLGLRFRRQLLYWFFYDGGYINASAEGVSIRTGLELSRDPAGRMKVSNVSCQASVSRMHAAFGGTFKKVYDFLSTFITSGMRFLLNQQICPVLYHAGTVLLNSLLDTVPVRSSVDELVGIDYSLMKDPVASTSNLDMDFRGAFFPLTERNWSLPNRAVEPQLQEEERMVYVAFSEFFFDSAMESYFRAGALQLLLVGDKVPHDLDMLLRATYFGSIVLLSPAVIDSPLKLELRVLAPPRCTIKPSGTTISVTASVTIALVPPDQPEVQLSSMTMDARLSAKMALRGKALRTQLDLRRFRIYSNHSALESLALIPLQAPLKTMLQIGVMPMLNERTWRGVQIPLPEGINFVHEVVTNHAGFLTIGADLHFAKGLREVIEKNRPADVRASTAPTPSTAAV
TEST: Determination of PLTP inhibition activity (radiolabelled phospholipid liposome to HDL transfer with plasma)
Format: biochemical
CONDITION_INFO: Concentration of compounds 150 μM; read-out: PLTP inhibition activity Inhibition rate(%)
Label scheme for inhibition at 150 µM: lower than 80% is Not fulfilled, 80% and above is Fulfilled.

### Prompt Confirm if inhibition at 150 µM reported for the molecule O=C(CCc1ccc(O)c(O)c1)Nc1nc(-c2ccc(O)cc2)c(Cc2ccccc2)s1 is 80% or above.
### Response Not fulfilled

### Prompt I'd appreciate it if you could say whether O=C(Nc1nc(-c2ccc(O)cc2)c(Cc2ccccc2)s1)c1ccc(Cl)cc1 has inhibition at 150 µM at least equal to 80%.
### Response Not fulfilled

### Prompt Given the entry COc1ccc(-c2nc(N)sc2CC2CCCCC2)cc1 , answer whether its inhibition at 150 µM meets or surpasses 80%.
### Response Not fulfilled

### Prompt Is the recorded value of inhibition at 150 µM equal to or greater than 80% for this molecule? O=C(Nc1nc(-c2ccc(O)cc2)c(Cc2ccccc2)s1)c1ccc(O)cc1O
### Response Not fulfilled

### Prompt For this molecule, is measured inhibition at 150 µM 80% or higher? O=C(Nc1nc(-c2ccc(O)cc2)c(Cc2ccccc2)s1)c1cc(O)c(O)c(O)c1
### Response Fulfilled

### Prompt inhibition at 150 µM >= 80% for COc1ccc(C(=O)Nc2nc(-c3ccc(O)cc3)c(Cc3ccccc3)s2)cc1 ?
### Response Not fulfilled
